# Tested on: PA-1
# Assay Explanation: Growth inhibition of Homo sapiens (human) PA1 cells at 10 uM after 48 hr by SRB assay
# Format: functional
# Setup Conditions: PA-1, 48 h, read-out: GI
Is inhibition of growth at 10 µM at least 30%? Then label 1. If not, label 0.

COc1ccc(OC)c(C2CC(c3ccncc3)=NN2)c1 (stereo unspecified)	label 0
COc1ccc(OC)c(C2CC(c3ccncc3)=NN2c2ccccc2)c1 (stereo unspecified)	label 1
CN(C)c1ccc(C2CC(c3cccnc3)=NN2)cc1 (stereo unspecified)	label 1
COc1ccc(OC)c(C2CC(c3ccccn3)=NN2c2ccccc2)c1 (stereo unspecified)	label 0
COc1ccc(OC)c(-c2nc(-c3cnccn3)no2)c1	label 0

Now turn to the next compound.
stdin: Could you tell me if the measured inhibition of growth at 10 µM of COc1ccc(OC)c(C2CC(c3cccnc3)=NN2)c1 (stereo unspecified) reaches 30% or more?
stdout: label 1
